Target: Proteasome subunit beta type-10 (PSMB10)
Assay: Inhibition of 20S immuno proteosome beta2i subunit (unknown origin) assessed as substrate hydrolysis using Boc-Leu-Arg-Arg-AMC as fluorogenic substrate at 100 uM
parameter: Ki (µM)
Give a bare numeral; the unit µM is implied.

As a guide, the following entries are already answered.
COc1cc2ccn(C/C=C/C(=O)NCCCc3ccccc3)c(=O)c2cc1OC; 3
COc1cc2ccn(C/C=C/C(=O)NC3CCCCC3)c(=O)c2cc1OC; 42
CCCCNC(=O)/C=C/Cn1ccc2cc(OC)c(OC)cc2c1=O; 42
COc1cc2ccn(C/C=C/C(=O)NCCC(C)C)c(=O)c2cc1OC; 20
COc1cc2ccn(C/C=C/C(=O)NCCc3ccccc3)c(=O)c2cc1OC; 4

Prompt line: Which measured Ki belongs to "COc1cc2ccn(C/C=C/C(=O)Nc3ccccc3)c(=O)c2cc1OC" , tested on Proteasome subunit beta type-10 (PSMB10)?
Response line: 12

The origin of these recorded values is BindingDB's records for PubMed 34838650.
